- protocol-summary: gradient 5% acetonitrile 3 min, to 50% in 2 min, to 85% in 15 min, held 3 min, 100 µL/min
- condition-parameters: column: Zorbax Extend-C18 2.1 x 50 mm; eluents: water / acetonitrile, 0.1% formic acid
property: RP-LC retention time (s)

// below: answered compounds
The compound identified as CC(=O)c1ccc(NC(=O)C2CC(=O)N(c3ccc4oc(C)nc4c3)C2)cc1 (stereo not given) registered its RP-LC retention time at 685

The compound identified as CC(C)C(=O)N1CCc2c(c(C(=O)NCc3ccc4c(c3)OCO4)nn2C)C1 registered its RP-LC retention time at 708

The compound identified as O=C(NC1CCCCC1)C1CCN(Cc2noc(-c3ccc(F)cc3)n2)CC1 registered its RP-LC retention time at 665

1. CC(C)CCN1C[C@@H]2C(=O)N(CCN3CCc4ccccc4C3)C(=O)[C@@H]2C1
2. COC(=O)c1cc(C)nc2c1c(=O)n(Cc1cccc(OC)c1)c(=O)n2C
*Q* From the items above, decide which of 1 and 2 has the lower RP-LC retention time reading. Indicate which entry you chose by stating its label.
*A* 1

src = the METLIN SMRT retention time set (Domingo-Almenara et al. 2019)
